- experimental-target: BSA (Bos taurus)
- Construct: purchased Millipore Sigma-Aldrich
- method: Far-UV CD secondary structure of BSA (CONTIN-LL deconvolution)
- Assay type: physicochemical, bovine
- Parameters: unit not given here
- setup-conditions: 1.0 mg/mL BSA, 25 mM component, 25 °C
- Description: Circular dichroism (CD) is widely used to study the secondary structures of proteins, peptides and nucleic acids, because it requires a low concentration sample, is a nondestructive method, allows studying a wide range of variables (temperature, pH, etc.), and provides information on the effect of added ligands on protein folding and interactions. […]
# note: exactly 0.3 is not below, so it is False; use True for Unordered strictly under it

Completed entries (count: 4):
compound	class-label
C[N+](C)(C)CCO.O=S(=O)([O-])C(F)(F)C(F)(F)C(F)(F)C(F)(F)F [[N1112(OH)][C4F9SO3]]	True
CCCCn1cc[n+](C)c1.O=S(=O)([O-])C(F)(F)F [[C4C1Im][CF3SO3]]	False
OC[C@H]1O[C@@](CO)(O[C@H]2O[C@H](CO)[C@@H](O)[C@H](O)[C@H]2O)[C@@H](O)[C@@H]1O	False
CCn1cc[n+](C)c1.O=S(=O)([O-])C(F)(F)C(F)(F)C(F)(F)C(F)(F)F	True

We now examine a further compound.
Unordered strictly < 0.3 for this compound? C[N+](C)(C)CCO.C[N+](C)(C)CCO.O=P([O-])(O)O.O=P([O-])(O)O [[N1112(OH)][H2PO4]] True

---

- experimental-target: BSA (Bos taurus, UniProt P02769)
- Construct: purchased Millipore Sigma-Aldrich
- Sequence (P02769 25-607): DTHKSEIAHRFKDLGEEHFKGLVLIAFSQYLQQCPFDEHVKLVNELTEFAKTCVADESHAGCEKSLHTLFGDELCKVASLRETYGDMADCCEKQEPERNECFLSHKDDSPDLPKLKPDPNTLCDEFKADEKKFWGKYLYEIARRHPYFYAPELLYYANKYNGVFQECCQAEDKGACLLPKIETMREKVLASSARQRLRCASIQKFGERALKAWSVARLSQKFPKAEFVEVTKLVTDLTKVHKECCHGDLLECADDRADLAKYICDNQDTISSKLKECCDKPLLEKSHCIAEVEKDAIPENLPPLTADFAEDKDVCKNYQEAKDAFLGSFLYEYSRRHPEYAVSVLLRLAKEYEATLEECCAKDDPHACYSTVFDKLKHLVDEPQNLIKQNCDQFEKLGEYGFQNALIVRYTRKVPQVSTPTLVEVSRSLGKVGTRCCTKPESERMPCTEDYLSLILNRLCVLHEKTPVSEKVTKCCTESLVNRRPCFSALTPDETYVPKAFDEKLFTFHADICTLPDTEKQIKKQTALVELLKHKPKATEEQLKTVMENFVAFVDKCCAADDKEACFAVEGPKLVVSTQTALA
- method: Far-UV CD secondary structure of BSA (CONTIN-LL deconvolution)
- Type: physicochemical, bovine
- Design: unit not given here
- setup-conditions: 1.0 mg/mL BSA, 55 mM component, 25 °C
// reported Unordered per item
// keep it numeric: no unit symbol after the value

Below, each entry is followed by its recorded Unordered result.
compound	Unordered
OC[C@H]1O[C@@](CO)(O[C@H]2O[C@H](CO)[C@@H](O)[C@H](O)[C@H]2O)[C@@H](O)[C@@H]1O	0.214
CCCCn1cc[n+](C)c1.O=S(=O)([O-])C(F)(F)F [[C4C1Im][CF3SO3]]	0.240
C[N+](C)(C)CCO.O=S(=O)([O-])C(F)(F)C(F)(F)C(F)(F)C(F)(F)F [[N1112(OH)][C4F9SO3]]	0.228

Recorded Unordered for C[N+](C)(C)CCO.C[N+](C)(C)CCO.O=P([O-])(O)O.O=P([O-])(O)O [[N1112(OH)][H2PO4]] , please? 0.320

Try the compound CCn1cc[n+](C)c1.O=S(=O)([O-])C(F)(F)C(F)(F)C(F)(F)C(F)(F)F 0.223

---

- experimental-target: BSA (Bos taurus)
- Construct: purchased Millipore Sigma-Aldrich
- method: DSC thermal unfolding of BSA in water and aqueous solutions of ABS phase-forming components
- Format: physicochemical, bovine
- setup-conditions: 1.0 mg/mL BSA, 5 mM component
measure: ΔS

Below, each entry is followed by its recorded ΔS result.
compound	assay-value
C[N+](C)(C)CCO.C[N+](C)(C)CCO.O=P([O-])(O)O.O=P([O-])(O)O [[N1112(OH)][H2PO4]]	1.915 KJ/(mol.K)
OC[C@H]1O[C@@](CO)(O[C@H]2O[C@H](CO)[C@@H](O)[C@H](O)[C@H]2O)[C@@H](O)[C@@H]1O	1.552 KJ/(mol.K)
C[N+](C)(C)CCO.O=S(=O)([O-])C(F)(F)C(F)(F)C(F)(F)C(F)(F)F [[N1112(OH)][C4F9SO3]]	2.007 KJ/(mol.K)
CCn1cc[n+](C)c1.O=S(=O)([O-])C(F)(F)C(F)(F)C(F)(F)C(F)(F)F	2.255 KJ/(mol.K)

Let's switch to this compound now.
What reported ΔS corresponds to CCCCn1cc[n+](C)c1.O=S(=O)([O-])C(F)(F)F [[C4C1Im][CF3SO3]] on BSA (Bos taurus)? 2.021 KJ/(mol.K)
